Value source: ChEMBL document CHEMBL1127427

- run-description: Compound was evaluated for oxidation rate constant in liver homogenate
- Format: ADME, tissue-based
- test-parameters: tissue homogenate
metric-name: k (min⁻¹)
Please give a number only; it is taken to be in min⁻¹.

Some solved cases for reference:
| compound-string | k [min⁻¹] |
| --- | --- |
| CCCCCCN1C=CCC(C(=O)O[C@H]2CC[C@H]3[C@@H]4CCc5cc(O)ccc5[C@H]4CC[C@]23C)=C1 | 0.0123 |
| CCN1C=CCC(C(=O)O[C@H]2CC[C@H]3[C@@H]4CCc5cc(O)ccc5[C@H]4CC[C@]23C)=C1 | 0.0323 |
| C[C@]12CC[C@@H]3c4ccc(O)cc4CC[C@H]3[C@@H]1CC[C@@H]2OC(=O)C1=CN(CCCO)C=CC1 | 0.0242 |

Now for a further molecule.
CCCN1C=CCC(C(=O)O[C@H]2CC[C@H]3[C@@H]4CCc5cc(O)ccc5[C@H]4CC[C@]23C)=C1 yielded k of 0.0153
